- Tested on: EKVX NSCLC
- assay name: NCI tumour cell line growth inhibition, 48 h
quantity: TGI

Solved entries (count: 10):
molecule	target under test	result
N=C(N)SCC(=O)O	EKVX NSCLC	> 100 µM
CCOC(=O)c1cc(C(=O)O)c(=O)n2c1[nH]c1ccccc12	EKVX NSCLC	> 100 µM
O=C(O)Cn1c[n+](NC(=O)Cc2ccccc2)cn1	EKVX NSCLC	> 10 µM
O=C(/C(=N/Nc1cn[nH]c(=O)c1Cl)c1ccccc1)c1ccccc1	EKVX NSCLC	83.1 µM
CC(C)(C)[Si](C)(C)OC1CCOC1(O)c1ccccn1 (stereo not given)	EKVX NSCLC	> 100 µM
COC(=O)Cc1cc(=O)oc2c1C(=O)CCC2	EKVX NSCLC	> 100 µM
O=C(O)C(O)c1ccc(F)cc1 (stereo not given)	EKVX NSCLC	> 100 µM
NCCNc1nc2ccccc2c2c(=O)c3cc(F)cc(Cl)c3sc12	EKVX NSCLC	3.13 µM
Nn1nnc2ccccc21	EKVX NSCLC	> 100 µM
CCOC(=O)C(=Cc1c(-c2ccccc2)[nH]c2ccccc12)C(=O)OCC	EKVX NSCLC	54.1 µM

Each molecule below has a reported value. Please supply its TGI.
1. OC(CCN1CCN(CCOC(c2ccc(F)cc2)c2ccc(F)cc2)CC1)c1ccc(Br)cc1 (stereo not given)
2. COc1ccc(-c2nn(-c3cccc(Cl)c3)cc2/C=C2\C(=N)N(c3ccccc3)N=C2N)cc1
3. CC(=O)OC1COC(N2c3ccccc3[C@@H]3CCc4c([nH]c5ccccc45)[C@@H]32)C(OC(C)=O)C1OC(C)=O (mixture of isomers)
4. O/N=C/[C@H]1COC2(CCCCC2)O1
5. C=C(C[N+](C)(C)C)N/N=C/c1oc(-c2ccc(OC)c(OC)c2)c(-c2ccc(OC)c(OC)c2)c1[N+](=O)[O-]
6. COC(=O)Cc1c2n(c3ccccc13)C(=O)N1c3ccccc3C(CC(=O)OC)C21 (stereo not given)
7. CC(C)NC(=O)OCc1c(COC(=O)NC(C)C)n(C)c2c1ccc1cc(Cl)c(Cl)cc12
8. COc1ccc2nc3cc(Cl)ccc3c(Nc3ccc(O)c(CN4CCCC4)c3)c2c1

1. 17.7 µM
2. 60.5 µM
3. > 100 µM
4. > 100 µM
5. > 100 µM
6. > 100 µM
7. 41.9 µM
8. 14.4 µM

Each molecule below has a reported value. Please supply its TGI.
1. Cc1cc2c(-c3nc4ccccn4c3NC34CC5CC(CC(C5)C3)C4)c(O)c(O)cc2c(O)c1-c1c(C)cc2c(-c3nc4ccccn4c3NC34CC5CC(CC(C5)C3)C4)c(O)c(O)cc2c1O
2. O=C1[C@H]2ON(c3ccccc3)C(c3cccc([N+](=O)[O-])c3)[C@H]2C(=O)N1c1ccc(Cc2ccc(N3C(=O)[C@@H]4ON(c5ccccc5)C(c5cccc([N+](=O)[O-])c5)[C@@H]4C3=O)cc2)cc1 (stereo not given in full)

["> 25 µM", "> 100 µM"]

---

Could you please report measured TGI for the items listed next?
- Tested on: SF-295 CNS
- assay name: NCI tumour cell line growth inhibition, 48 h

molecule	target under test	quantity	result
CN1CCN(CCCOc2ccc3ncnc(Nc4ccc(Oc5cccc(F)c5)c(Cl)c4)c3c2)CC1	SF-295 CNS	TGI	3.25 µM
COc1ccc(-c2oc3cc(OC)ccc3c(=O)c2O)cc1	SF-295 CNS	TGI	> 100 µM
CC1=[N+]([O-])C2(CCCC2)N(O)C1(C)C	SF-295 CNS	TGI	> 100 µM

Each molecule below has a reported value. Please supply its TGI.
1. COc1ccc(-c2nn3ncccc3c2-c2ccnc(Nc3cccc(C(F)(F)F)c3)n2)cc1
2. Nc1cc2nc(-c3ccccc3)cn2cn1
3. O=c1c2ccccc2c(=O)c2c1sc1c(=O)c3ccc(O)cc3c(=O)c12
4. N#Cc1c(-c2ccc(Cl)cc2)csc1NC(=O)Nc1cccc(C(F)(F)F)c1
5. Nc1ccc2c(SCC(=O)Nc3ccccc3-c3ccccc3NC(=O)CSc3c4ccccc4nc4cc(N)ccc34)c3ccccc3nc2c1
6. CCOC(=O)c1c(-c2ccc(OC)cc2)c(C#N)c(=S)n(C2OC(CO)C(O)C(O)C2O)c1C (stereo not given)
7. COC(=O)Cc1c2n(c3ccccc13)C(=O)N1c3ccccc3C(CC(=O)OC)C21 (stereo not given)

1: > 25 µM; 2: > 100 µM; 3: 0.361 µM; 4: 4.21 µM; 5: 98 µM; 6: > 100 µM; 7: 68.2 µM
